Recorded Chemical purity (%) by entry
# EXPERIMENT_NOTES: Storage stability test
# Type: physicochemical
# CONDITIONS_USED: 40° C./75% RH, closed for 1 month
Lab book: enter the figure in %, no units written.

COMPOUND: Cc1ncc(-c2nc(-c3ccccc3)c(NC(=O)N[C@@H]3c4ccccc4C(C)(C)C[C@H]3O)cc2C)cn1 [Example 2]
MEASURE_UNIT: %
DATA_VALUE: 99.8
--
COMPOUND: Cc1ncc(-c2nc(-c3ccccc3)c(NC(=O)N[C@@H]3c4ccccc4C(C)(C)C[C@H]3O)cc2C)cn1 [Example 5]
MEASURE_UNIT: %
DATA_VALUE: 99.9
--
COMPOUND: Cc1ncc(-c2nc(-c3ccccc3)c(NC(=O)N[C@@H]3c4ccccc4C(C)(C)C[C@H]3O)cc2C)cn1 [Example 4]
MEASURE_UNIT: %
DATA_VALUE: 99.8

Prompt: Supply Chemical purity (%) value. Item: Cc1ncc(-c2nc(-c3ccccc3)c(NC(=O)N[C@@H]3c4ccccc4C(C)(C)C[C@H]3O)cc2C)cn1 [Example 3]
Completion: 100.00

----------
# EXPERIMENT_NOTES: Photostability test according to ICH Q1B
# Assay type: physicochemical
# CONDITIONS_USED: Exposure, 1 ICH (10-day)
PROPERTY_LABEL: Chemical purity (%)
Lab book: enter the figure in %, no units written.

Use these answered entries as a reference point.
COMPOUND: Cc1ncc(-c2nc(-c3ccccc3)c(NC(=O)N[C@@H]3c4ccccc4C(C)(C)C[C@H]3O)cc2C)cn1 [Example 2]
MEASURE_UNIT: %
Chemical purity (%): 98.9
--
COMPOUND: Cc1ncc(-c2nc(-c3ccccc3)c(NC(=O)N[C@@H]3c4ccccc4C(C)(C)C[C@H]3O)cc2C)cn1 [Example 3]
MEASURE_UNIT: %
Chemical purity (%): 100.0

Prompt: Supply Chemical purity (%) value. Item: Cc1ncc(-c2nc(-c3ccccc3)c(NC(=O)N[C@@H]3c4ccccc4C(C)(C)C[C@H]3O)cc2C)cn1 [Example 5]
Completion: 99.5

Prompt: Supply Chemical purity (%) value. Item: Cc1ncc(-c2nc(-c3ccccc3)c(NC(=O)N[C@@H]3c4ccccc4C(C)(C)C[C@H]3O)cc2C)cn1 [Example 4]
Completion: 99.8

----------
# EXPERIMENT_NOTES: Determination of equilibrium solubility in phosphate buffer solution with pH 6.8
# Assay type: physicochemical
# CONDITIONS_USED: phosphate buffer solution pH 6.8, 37 °C, pH 6.8, aqueous buffer, thermodynamic from solid, pH 6.8 phosphate buffer, mean value of three measurements, read-out: Solubility
PROPERTY_LABEL: Solubility (µg/mL)
Lab book: enter the figure in µg/mL, no units written.

Prompt: Supply Solubility value. Item: Cc1ncc(-c2nc(-c3ccccc3)c(NC(=O)N[C@@H]3c4ccccc4C(C)(C)C[C@H]3O)cc2C)cn1
Completion: 41.1

----------
# EXPERIMENT_NOTES: Storage stability test
# Type: physicochemical
# CONDITIONS_USED: 25° C./60% RH, closed for 1 month
# Procedure: For the stability test, approximately 20 mg of the test sample was stored at 25° C./60% RH or at 40° C./75% RH in open or closed condition for 1 month using a small environmental tester SH-641 (manufactured by Espec), and changes in purity and in crystalline form were observed. For purity measurement, equipment of Waters ACQUITY UPLC H-Class (manufactured by Waters) and column of Waters ACQUITY BEH C18 (particle diameter […], size 2.1×50 mm) are used. […]
Recorded Chemical purity (%) by entry
Lab book: enter the figure in %, no units written.

Use these answered entries as a reference point.
COMPOUND: Cc1ncc(-c2nc(-c3ccccc3)c(NC(=O)N[C@@H]3c4ccccc4C(C)(C)C[C@H]3O)cc2C)cn1 [Example 4]
Chemical purity (%): 99.8

COMPOUND: Cc1ncc(-c2nc(-c3ccccc3)c(NC(=O)N[C@@H]3c4ccccc4C(C)(C)C[C@H]3O)cc2C)cn1 [Example 5]
Chemical purity (%): 99.9

Prompt: Supply Chemical purity (%) value. Item: Cc1ncc(-c2nc(-c3ccccc3)c(NC(=O)N[C@@H]3c4ccccc4C(C)(C)C[C@H]3O)cc2C)cn1 [Example 3]
Completion: 100.00

Prompt: Supply Chemical purity (%) value. Item: Cc1ncc(-c2nc(-c3ccccc3)c(NC(=O)N[C@@H]3c4ccccc4C(C)(C)C[C@H]3O)cc2C)cn1 [Example 2]
Completion: 99.8

The values you see were collected from patent US12134607B2.
